- TESTED ON: Potassium voltage-gated channel subfamily E member 1 (Homo sapiens) + Potassium voltage-gated channel subfamily KQT member 1 (Homo sapiens) (UniProt P15382+P51787)
- Sequence (P51787 whole entry, looked up): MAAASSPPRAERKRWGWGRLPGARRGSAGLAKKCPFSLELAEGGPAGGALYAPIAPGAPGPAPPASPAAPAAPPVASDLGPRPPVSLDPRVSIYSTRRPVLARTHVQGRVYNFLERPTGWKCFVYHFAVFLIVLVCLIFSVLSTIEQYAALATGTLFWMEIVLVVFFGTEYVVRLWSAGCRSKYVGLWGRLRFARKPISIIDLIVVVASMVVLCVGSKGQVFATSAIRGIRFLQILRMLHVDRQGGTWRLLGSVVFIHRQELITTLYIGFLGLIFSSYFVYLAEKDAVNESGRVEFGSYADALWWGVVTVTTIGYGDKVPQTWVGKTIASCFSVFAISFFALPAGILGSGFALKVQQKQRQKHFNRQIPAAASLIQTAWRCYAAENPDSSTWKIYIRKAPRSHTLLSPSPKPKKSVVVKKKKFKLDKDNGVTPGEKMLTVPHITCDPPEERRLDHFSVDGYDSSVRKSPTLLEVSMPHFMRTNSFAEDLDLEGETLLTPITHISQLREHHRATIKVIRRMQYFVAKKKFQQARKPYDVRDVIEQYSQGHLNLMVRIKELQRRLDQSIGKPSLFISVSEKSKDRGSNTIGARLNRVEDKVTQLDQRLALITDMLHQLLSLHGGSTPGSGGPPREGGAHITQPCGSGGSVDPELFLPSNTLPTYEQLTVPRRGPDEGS
- ASSAY COMMENT: KCNQ1/KCNE1 complex potentiators, confirmation, selectivity assay for KCNQ1 potentiator project, thallium flux, CHO-K1 KCNQ1/E1 cells (AID 493186)
- PARTICULARS: FluxOR thallium flux, at 10 µM
Active and inactive are the calls of the source.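 Rule for the calls: active = mean duplicate activation above the buffer control mean plus 5 SD of those controls; inactive = the rest.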
The categories you may choose from are true (1) = active, false (0) = inactive

Prompt: Record request — test call for COc1cc(/C=C2\C(=O)N(CCC#N)N=C2C)c(Br)cc1OC(C)C
Completion: false (0)

Prompt: Record request — test call for CC(C)CCn1c(SCC(=O)NC2CC2)nc2cc(Cl)ccc2c1=O
Completion: false (0)

Prompt: Record request — test call for CCN(c1ccccc1)S(=O)(=O)c1ccc(NC(=S)NC(=O)c2ccc(Br)o2)cc1
Completion: false (0)

Prompt: Record request — test call for O=C(NC(=S)Nc1cc(C(F)(F)F)ccc1N1CCOCC1)c1sc2ccccc2c1Cl
Completion: false (0)

Prompt: Record request — test call for CN(C)CCNc1nc2sc3c(c2c(=O)n1CCc1ccccc1)CCCCC3
Completion: false (0)

Prompt: Record request — test call for O=C(NCC1CCCO1)c1cccc(Oc2ccccc2)c1 (stereo not given)
Completion: false (0)

Prompt: Record request — test call for NC(=Nc1ccccc1)Nc1ccccc1
Completion: false (0)

Prompt: Record request — test call for Cc1ccc(C)c(N/C(N)=N/c2nc(C)cc(C)n2)c1
Completion: false (0)

Prompt: Record request — test call for S=c1[nH]nc(-c2ccco2)n1/N=C/c1cccc(Cl)c1Cl
Completion: false (0)

Prompt: Record request — test call for Cc1nn(Cc2ccc(Cl)cc2)c(C)c1NC(=O)c1cc(-c2ccco2)on1
Completion: false (0)

Prompt: Record request — test call for COc1cc(NC(=S)N2CCC(C(O)(c3ccccc3)c3ccccc3)CC2)cc(OC)c1
Completion: false (0)

Prompt: Record request — test call for COC(=O)N/N=C/c1cc(C)n(-c2ccc(F)cc2)c1C
Completion: false (0)

Prompt: Record request — test call for Clc1ccc(Nc2ccc(Cl)nn2)cc1
Completion: false (0)

Prompt: Record request — test call for CCOC(=O)SC1=N/C(=C\c2ccc(N(C)C)cc2)C(=O)S1
Completion: true (1)

Prompt: Record request — test call for CCC1=NN2C(=N)/C(=C/c3ccc(OS(=O)(=O)c4ccccc4)c(OC)c3)C(=O)N=C2S1
Completion: false (0)

Prompt: Record request — test call for O=C(NCC(c1cccs1)N1CCOCC1)C1CCN(S(=O)(=O)c2cccc(C(F)(F)F)c2)CC1 (stereo not given)
Completion: false (0)

Prompt: Record request — test call for CCN(CC)CCCNC(=O)c1c(O)c2cc(F)cc3c2n(c1=O)C(C)CC3 (stereo not given)
Completion: false (0)

Prompt: Record request — test call for Cc1ccc(NC(=S)c2nc3ccccc3s2)cc1
Completion: false (0)

Prompt: Record request — test call for Cc1ccc(-c2nnc(SCC(=O)N/N=C/c3ccccc3C(=O)O)n2-c2ccc(Cl)cc2)cc1
Completion: false (0)

Prompt: Record request — test call for COc1cc(-c2noc(C)c2-c2ccc(N(C)C)nc2)cc(OC)c1OC
Completion: false (0)
